The measured values listed here are drawn from ChEMBL document CHEMBL5316357.

Assignment: determine reported pEC50 for the given molecules.
- Tested on: Hepatitis B virus
- test_summary: Antiviral activity against HBV stably transfected in human HepG2.2.15 cells assessed as reduction of HBV DNA replication incubated for 5 days by q-PCR analysis
- Type: functional, organism-based
- experimental_conditions: HepG2 2.2.15, 120 h
One number for each entry, as −log10 of the molar value.

Examples from the recorded data:
Lookup: pEC50 / Hepatitis B virus / CCOC(=O)C1=C(CN2C[C@H]3CN(C4CC4)C(=O)N3C[C@@H]2C(=O)O)NC(c2nccs2)=N[C@H]1c1ccc(F)cc1Cl
8.70

Value wanted: pEC50 (Hepatitis B virus) of entry COC(=O)C1=C(CN2CCN3C(=O)N(CC(C)(C)C(=O)O)C[C@@H]3C2)NC(c2nccs2)=N[C@H]1c1cccc(F)c1C
7.80

// batch mode: one pEC50 value per listed entry
1. COC(=O)C1=C(CN2CCN3C(=O)N(CCC(C)(C)C(=O)O)C[C@@H]3C2)NC(c2nccs2)=N[C@H]1c1ccc(F)cc1Cl
2. COC(=O)C1=C(CN2CCN3C(=O)N(c4cccc(C(=O)O)c4)C[C@@H]3C2)NC(c2nccs2)=N[C@H]1c1ccc(F)cc1Cl (single isomer, unassigned)
3. COC(=O)C1=C(CN2CCN3C(=O)N(CC(C)(C)C(=O)O)C[C@@H]3C2)NC(c2nccs2)=N[C@H]1c1ccc(F)cc1Cl

8.10
8.15
8.22

###

- test_summary: Half life in male Wistar Han rat at 3 mg/kg,po by LC-MS/MS analysis
- Type: ADME, organism-based
- experimental_conditions: in vivo
reported_property: half-life (h)
Give bare numbers, in h.

Could you share which half-life value was measured for CCOC(=O)C1=C(CN2CCN3C(=O)N(CC(C)(C)C(=O)O)C[C@@H]3C2)NC(c2nccs2)=N[C@H]1c1cccc(F)c1C [LINVENCORVIR] ?
1.87

###

Exercise: for every item that follows, state its recorded pEC50.
- Test system: Hepatitis B virus
- test_summary: Antiviral activity against HBV stably transfected in human HepG2.2.15 cells assessed as reduction of HBV DNA replication incubated for 5 days by q-PCR analysis
- Type: functional, organism-based
- experimental_conditions: HepG2 2.2.15, 120 h
One number for each entry, as −log10 of the molar value.

Examples with their reported pEC50 follow.
So what's the measured pEC50 for this one? COC(=O)C1=C(CN2CCN3C(=O)OC[C@@H]3C2)NC(c2nccs2)=N[C@H]1c1ccc(F)cc1Cl
8.52

For COC(=O)C1=C(CN2CCN3C(=O)N([C@H]4C[C@H](C(=O)O)C4)C[C@@H]3C2)NC(c2nccs2)=N[C@H]1c1ccc(F)cc1Cl , what is its reported pEC50?
7.47

Query (molecule): COC(=O)C1=C(CN2CCN3C(=O)OCCC3C2)NC(c2nccs2)=N[C@H]1c1ccc(F)cc1Cl (some centres undefined) ; field requested: pEC50
7.00

State the recorded pEC50 for this entry: COC(=O)C1=C(CN2CCN3C(=O)N(C(C)(C)CC(=O)O)C[C@@H]3C2)NC(c2nccs2)=N[C@H]1c1ccc(F)cc1Cl
7.52

Recorded pEC50 for CCOC(=O)C1=C(CN2CCN3C(=O)N(CC(C)(C)C(=O)O)C[C@@H]3C2)NC(c2nccs2)=N[C@H]1c1ccc(F)cc1Cl , please?
8.05

Value lookup for pEC50; key = COC(=O)C1=C(CN2CCN3C(=O)N([C@H]4C[C@@H](C(=O)O)C4)C[C@@H]3C2)NC(c2nccs2)=N[C@H]1c1ccc(F)cc1Cl
7.52

Below are 5 molecules. Give each one its pEC50.
1. CCOC(=O)C1=C(CN2CCN3C(=O)N(CC(C)C(=O)O)C[C@@H]3C2)NC(c2nccs2)=N[C@H]1c1ccc(F)cc1Cl (some centres undefined)
2. COC(=O)C1=C(CN2CCN3C(=O)N(CC4(C(=O)O)CC4)C[C@@H]3C2)NC(c2nccs2)=N[C@H]1c1ccc(F)cc1Cl
3. CCOC(=O)C1=C(CN2CCN3C(=O)N(CC(C)(C)C(=O)O)C[C@@H]3C2)NC(c2nccs2)=N[C@H]1c1cccc(F)c1Cl
4. COC(=O)C1=C(CN2CCN3C(=O)CC[C@@H]3C2)NC(c2nccs2)=N[C@H]1c1ccc(F)cc1Cl
5. COC(=O)C1=C(CN2CCN3C(=O)COCC3C2)NC(c2nccs2)=N[C@H]1c1ccc(F)cc1Cl (some centres undefined)

7.80
7.96
8.52
7.85
7.26

Could you report pEC50 for every entry in the following list?
1. COC(=O)C1=C(CN2CCN3C(=O)N(CC(C)(C)C(=O)O)C[C@@H]3C2)NC(c2nccs2)=N[C@H]1c1ccc(F)c(F)c1C
2. CCOC(=O)C1=C(CN2C[C@H]3CN(C(C)(C)C)C(=O)N3C[C@@H]2C(=O)O)NC(c2nccs2)=N[C@H]1c1ccc(F)cc1Cl
3. COC(=O)C1=C(CN2CCN3C(=O)N(CC(C)(C)C(=O)O)C[C@@H]3C2)NC(c2nccs2)=N[C@H]1c1cccc(F)c1Cl

1. 8.22
2. 9.00
3. 7.85

###

- test_summary: AUClast in male cynomolgus monkey at 3 mg/kg,po by LC-MS/MS analysis
- Type: ADME, organism-based, Macaca fascicularis
- Set-up: dose 3 mg/kg, route po
- experimental_conditions: in vivo
reported_property: AUC(0-t) (ng·h/mL)
Numbers only, in ng·h/mL.

Sample CCOC(=O)C1=C(CN2CCN3C(=O)N(CC(C)(C)C(=O)O)C[C@@H]3C2)NC(c2nccs2)=N[C@H]1c1cccc(F)c1C [LINVENCORVIR] — what was its AUC(0-t)?
280

###

- test_summary: Toxicity in minipig assessed as NOAEL administrated upto 28 days
- Parameters: species or system Sus scrofa domesticus
- experimental_conditions: pig, in vivo; time < 28 day
reported_property: NOAEL at 672 h (mg/kg)
Numbers only, in mg/kg.

Item CCOC(=O)C1=C(CN2CCN3C(=O)N(CC(C)(C)C(=O)O)C[C@@H]3C2)NC(c2nccs2)=N[C@H]1c1cccc(F)c1C [LINVENCORVIR] has what recorded NOAEL at 672 h?
350

###

- test_summary: Toxicity in rat assessed as NOAEL administrated upto 28 days
- experimental_conditions: in vivo, time < 28 day
reported_property: NOAEL at 672 h
Just so you know, I need the unit written after the number.

Could you tell me which NOAEL at 672 h is on file for CCOC(=O)C1=C(CN2CCN3C(=O)N(CC(C)(C)C(=O)O)C[C@@H]3C2)NC(c2nccs2)=N[C@H]1c1cccc(F)c1C ?
250 mg/kg

###

- test_summary: Cytotoxicity against human HepDE19 cells assessed as reduction in cell viability incubated for 5 days by CCK-8 assay
- Assay type: functional
- experimental_conditions: HepDE19, 120 h, time 5 day
Would you mind telling me the reported CC50 of each entry?

Take a look at these entries with their results.
Please report the recorded CC50 for COC(=O)C1=C(CN2CCN3C(=O)N(CC(C)(C)C(=O)O)C[C@@H]3C2)NC(c2nccs2)=N[C@H]1c1cccc(F)c1Cl .
> 100 µM

What value of CC50 has been reported for the following molecule? CCOC(=O)C1=C(CN2CCN3C(=O)N(CC(C)(C)C(=O)O)C[C@@H]3C2)N=C(c2nccs2)N[C@H]1c1cccc(F)c1C
> 100 µM

Fill in the blank: the reported CC50 of CCOC(=O)C1=C(CN2C[C@H]3CN(C(C)(C)C)C(=O)N3C[C@H]2C(=O)O)NC(c2nccs2)=N[C@H]1c1ccc(F)cc1Cl is ____.
> 100 µM

Give its CC50 value. Item: COC(=O)C1=C(CN2CCN3C(=O)N(C4CCC(C(=O)O)CC4)C[C@@H]3C2)NC(c2nccs2)=N[C@H]1c1ccc(F)cc1Cl (some centres not stated)
70 µM

Query: CC50; subject: COC(=O)C1=C(CN2CCN3C(=O)OCCC3C2)NC(c2nccs2)=N[C@H]1c1ccc(F)cc1Cl (some centres not stated)
62 µM

If you can, please state the reported CC50 value of CCOC(=O)C1=C(CN2CCN3C(=O)N(CC(C)(C)C(=O)O)C[C@@H]3C2)NC(c2nccs2)=N[C@H]1c1ccc(F)cc1Cl .
77 µM

Query: CC50; subject: COC(=O)C1=C(CN2CCN3C(=O)N(CC4(C(=O)O)CCC4)C[C@@H]3C2)NC(c2nccs2)=N[C@H]1c1ccc(F)cc1Cl
> 100 µM

Which CC50 value belongs to CCOC(=O)C1=C(CN2CCN3C(=O)N(CC(C)(C)C(=O)O)C[C@@H]3C2)NC(c2nccs2)=N[C@H]1c1ccc(F)c(F)c1C ?
> 100 µM

Count: 4. Required value per item: CC50.
1. COC(=O)C1=C(CN2CCN3C(=O)N(CCC(C)(C)C(=O)O)C[C@@H]3C2)NC(c2nccs2)=N[C@H]1c1ccc(F)cc1Cl
2. CCOC(=O)C1=C(CN2CCN3C(=O)N(CC(C)(C)C(=O)O)C[C@@H]3C2)NC(c2nccs2)=N[C@H]1c1cccc(F)c1Cl
3. COC(=O)C1=C(CN2CCN3C(=O)N([C@H]4C[C@@H](C(=O)O)C4)C[C@@H]3C2)NC(c2nccs2)=N[C@H]1c1ccc(F)cc1Cl
4. COC(=O)C1=C(CN2CCN3C(=O)N([C@H]4C[C@H](C(=O)O)C4)C[C@@H]3C2)NC(c2nccs2)=N[C@H]1c1ccc(F)cc1Cl

1: > 100 µM; 2: > 100 µM; 3: > 100 µM; 4: 43 µM

Please go through the list and note CC50 for each molecule.
1. COC(=O)C1=C(CN2CCN3C(=O)N(CC(C)(C)C(=O)O)C[C@@H]3C2)NC(c2nccs2)=N[C@H]1c1cccc(F)c1C
2. COC(=O)C1=C(CN2CCN3C(=O)N(CC(C)(C)C(=O)O)C[C@@H]3C2)NC(c2nccs2)=N[C@H]1c1ccc(F)cc1Cl

1: > 100 µM; 2: > 100 µM

Take each entry in turn and give its CC50.
1. COC(=O)C1=C(CN2CCN3C(=O)N(CC(C)(C)C(=O)O)C[C@@H]3C2)NC(c2nccs2)=N[C@H]1c1ccc(F)c(F)c1C
2. COC(=O)C1=C(CN2CCN3C(=O)N(CC4(C(=O)O)CC4)C[C@@H]3C2)NC(c2nccs2)=N[C@H]1c1ccc(F)cc1Cl
3. COC(=O)C1=C(CN2CCN3C(=O)NC[C@H]3C2)NC(c2nccs2)=N[C@H]1c1ccc(F)cc1Cl
4. COC(=O)C1=C(CN2CCN3C(=O)OC[C@H]3C2)NC(c2nccs2)=N[C@H]1c1ccc(F)cc1Cl

1: 94 µM; 2: > 100 µM; 3: 89 µM; 4: 76 µM

Go through the list and state CC50 for each entry.
1. COC(=O)C1=C(CN2CCOC[C@H]2C(=O)O)N=C(c2nccs2)N[C@H]1c1ccc(F)cc1Cl
2. CCOC(=O)C1=C(CN2C[C@H]3CN(C(C)(C)C)C(=O)N3C[C@@H]2C(=O)O)NC(c2nccs2)=N[C@H]1c1ccc(F)cc1Cl
3. COC(=O)C1=C(CN2CCN3C(=O)N(C(C)(C)CC(=O)O)C[C@@H]3C2)NC(c2nccs2)=N[C@H]1c1ccc(F)cc1Cl
4. CCOC(=O)C1=C(CN2CCN3C(=O)N(c4ccc(C(=O)O)cc4)C[C@@H]3C2)NC(c2nccs2)=N[C@H]1c1ccc(F)cc1Cl (single isomer, unassigned)
5. COC(=O)C1=C(CN2CCc3c([nH][nH]c3=O)C2)NC(c2nccs2)=N[C@H]1c1ccc(F)cc1Cl
6. COC(=O)C1=C(CN2CCN3C(=O)OC[C@@H]3C2)NC(c2nccs2)=N[C@H]1c1ccc(F)cc1Cl

> 100 µM
> 100 µM
> 100 µM
28 µM
> 100 µM
79 µM
